Target: 5-HT2C receptor (Homo sapiens)
Construct: host or cells: U2OS
Sequence (P28335 33-458): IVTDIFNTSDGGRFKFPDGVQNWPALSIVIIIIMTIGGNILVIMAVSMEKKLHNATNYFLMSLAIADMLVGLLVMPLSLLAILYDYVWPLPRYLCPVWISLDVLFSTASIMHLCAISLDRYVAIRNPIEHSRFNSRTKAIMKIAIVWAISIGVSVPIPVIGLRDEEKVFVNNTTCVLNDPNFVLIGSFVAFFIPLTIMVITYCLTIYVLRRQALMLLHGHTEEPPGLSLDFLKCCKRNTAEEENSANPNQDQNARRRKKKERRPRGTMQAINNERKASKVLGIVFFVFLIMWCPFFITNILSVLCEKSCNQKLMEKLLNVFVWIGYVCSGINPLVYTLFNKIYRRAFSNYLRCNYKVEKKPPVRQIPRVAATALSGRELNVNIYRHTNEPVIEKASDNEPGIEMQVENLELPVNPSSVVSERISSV
Sequence (P32121 whole entry partner): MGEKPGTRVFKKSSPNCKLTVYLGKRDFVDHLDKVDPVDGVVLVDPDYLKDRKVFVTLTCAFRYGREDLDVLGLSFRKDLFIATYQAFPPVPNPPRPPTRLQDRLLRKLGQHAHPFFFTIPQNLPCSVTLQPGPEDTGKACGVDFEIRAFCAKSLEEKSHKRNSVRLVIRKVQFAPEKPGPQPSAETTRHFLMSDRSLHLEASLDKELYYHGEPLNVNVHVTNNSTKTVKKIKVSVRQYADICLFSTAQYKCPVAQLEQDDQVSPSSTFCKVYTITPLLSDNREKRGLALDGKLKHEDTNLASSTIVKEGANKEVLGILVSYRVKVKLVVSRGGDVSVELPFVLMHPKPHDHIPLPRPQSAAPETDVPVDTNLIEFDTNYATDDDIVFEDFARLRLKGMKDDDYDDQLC
Test: Human 5-HT2C functional assay (beta-arrestin2 recruitment, U2OS_HTR2C_β-Arrestin cells)
Type: cell-based
Conditions: relative efficacy vs response to 10 μM 5-HT or maximal 5-HT effect (100%)
Where a name gives a salt, the structure may show the parent alone.
Would you kindly list Emax for each of these compounds?

Field: Emax (5-HT2C receptor (Homo sapiens)). Entry: COc1nc(O[C@H]2CC[C@H](C(F)(F)F)CC2)c(F)cc1CNC(=O)[C@H]1NC[C@@H]1C > 70%

Field: Emax (5-HT2C receptor (Homo sapiens)). Entry: COc1nc(OC2CCC(F)(F)CC2)c(F)cc1CNC(=O)[C@@H]1CCN1 50 to 70%

Field: Emax (5-HT2C receptor (Homo sapiens)). Entry: COc1nc(OC2CC3C(C2)C3(F)F)c(F)cc1CNC(=O)C1CCCN1C (centres unmarked) [Example 64, Dihydrochloride] > 70%

Field: Emax (5-HT2C receptor (Homo sapiens)). Entry: COCCCc1nc(OC)c(CNC(=O)[C@@H]2CCCN2)cc1F > 70%

Field: Emax (5-HT2C receptor (Homo sapiens)). Entry: COc1nc(OC2CCCC3C2C3(F)F)c(F)cc1CNC(=O)[C@@H]1CCCN1 (some centres unmarked) > 70%

Field: Emax (5-HT2C receptor (Homo sapiens)). Entry: COc1nc(N2CC(C)OC(C)C2)c(F)cc1CNC(=O)[C@@H]1CCCN1 (some centres unmarked) 30 to 50%

Field: Emax (5-HT2C receptor (Homo sapiens)). Entry: COc1nc(OCC2CCC(F)(F)CC2)c(F)cc1CNC(=O)[C@@H]1CCCN1 > 70%

Field: Emax (5-HT2C receptor (Homo sapiens)). Entry: COc1nc(NC2CCC(F)(F)CC2)c(F)cc1CNC(=O)[C@@H]1CCCN1 > 70%

Field: Emax (5-HT2C receptor (Homo sapiens)). Entry: COc1nc(O[C@H]2CC[C@H](C(F)(F)F)CC2)c(F)cc1CNC(=O)[C@@H]1CCCN1C > 70%

Field: Emax (5-HT2C receptor (Homo sapiens)). Entry: COc1nc(OCC(F)(F)F)c(F)cc1CN(C)C(=O)[C@@H]1CCCN1C [Example 113, Hydrochloride] 30 to 50%

Field: Emax (5-HT2C receptor (Homo sapiens)). Entry: COc1nc(OC2CCC(F)(F)CC2)c(F)cc1CNC(=O)[C@@H]1C[C@@H](F)CN1 > 70%

Field: Emax (5-HT2C receptor (Homo sapiens)). Entry: COc1nc(NC2CCC(C(F)(F)F)CC2)c(F)cc1CNC(=O)[C@@H]1CCCN1 (some centres unmarked) > 70%

Field: Emax (5-HT2C receptor (Homo sapiens)). Entry: COc1nc(N2CCC(Oc3ccccc3)CC2)c(F)cc1CNC(=O)[C@@H]1CCCN1 > 70%

Field: Emax (5-HT2C receptor (Homo sapiens)). Entry: COc1nc(OC2CCC(O)CC2)c(F)cc1CNC(=O)[C@@H]1CCCN1 (some centres unmarked) > 70%

Field: Emax (5-HT2C receptor (Homo sapiens)). Entry: COc1nc(OC(C)C(F)(F)C(F)(F)F)c(F)cc1CNC(=O)[C@@H]1CCCN1 (some centres unmarked) > 70%

Field: Emax (5-HT2C receptor (Homo sapiens)). Entry: COc1nc(OCC(F)(F)F)c(F)cc1CNC(=O)[C@@H]1CCCN1 > 70%

Field: Emax (5-HT2C receptor (Homo sapiens)). Entry: COc1nc(OC2CC(OC)C2)c(F)cc1CNC(=O)[C@@H]1CCCN1 (some centres unmarked) [Example 104, Hydrochloride] > 70%

Field: Emax (5-HT2C receptor (Homo sapiens)). Entry: COc1nc(OCC(F)(F)F)c(F)cc1CNC(=O)[C@@H]1CCCN1C [Example 100, Hydrochloride] > 70%

Field: Emax (5-HT2C receptor (Homo sapiens)). Entry: COc1nc(C(F)(F)Cc2ccccc2)c(F)cc1CN(C)C(=O)[C@@H]1CCCN1 [Example 191, Hydrochloride] 30 to 50%

Field: Emax (5-HT2C receptor (Homo sapiens)). Entry: COc1nc(C2CCC(OC)CC2)c(F)cc1CNC(=O)[C@@H]1CCCN1 (some centres unmarked) > 70%

Field: Emax (5-HT2C receptor (Homo sapiens)). Entry: COc1nc(N[C@H]2CC[C@H](C(F)(F)F)CC2)c(F)cc1CNC(=O)[C@@H]1CCCN1 > 70%

Field: Emax (5-HT2C receptor (Homo sapiens)). Entry: COc1nc(OC[C@@H]2CCC(F)(F)C2)c(F)cc1CNC(=O)[C@@H]1CCCN1 > 70%

Field: Emax (5-HT2C receptor (Homo sapiens)). Entry: COc1nc(O[C@H]2CC[C@H](F)CC2)c(F)cc1CNC(=O)[C@@H]1CCCN1C > 70%

Field: Emax (5-HT2C receptor (Homo sapiens)). Entry: COc1nc(OCC2(C(F)(F)F)CC2)c(F)cc1CN(C)C(=O)[C@@H]1CCCN1 [Example 76, Hydrochloride] > 70%

Field: Emax (5-HT2C receptor (Homo sapiens)). Entry: COc1nc(OCCCC(F)(F)F)c(F)cc1CNC(=O)[C@@H]1CCCN1 > 70%

Field: Emax (5-HT2C receptor (Homo sapiens)). Entry: COc1nc(N2CC(C)(Oc3ccccc3)C2)c(F)cc1CNC(=O)[C@@H]1CCCN1 > 70%

Field: Emax (5-HT2C receptor (Homo sapiens)). Entry: COc1nc(OC2CC(F)(F)C2)c(F)cc1CNC(=O)[C@@H]1CCCN1C [Example 71, Hydrochloride] > 70%

Field: Emax (5-HT2C receptor (Homo sapiens)). Entry: COc1nc(O[C@H]2CC[C@@H](F)CC2)c(F)cc1CNC(=O)[C@@H]1CCCN1 > 70%

Field: Emax (5-HT2C receptor (Homo sapiens)). Entry: COc1nc(N2CC(F)(F)C(F)(F)C(F)(F)C2)c(F)cc1CNC(=O)[C@@H]1CCCN1 [Example 182, Hydrochloride] > 70%

Field: Emax (5-HT2C receptor (Homo sapiens)). Entry: COc1nc(OCC2(C(F)(F)F)CC2)c(F)cc1CN(C)C(=O)[C@@H]1CCCN1C [Example 98, Hydrochloride] 50 to 70%

Field: Emax (5-HT2C receptor (Homo sapiens)). Entry: COc1nc(OCC(C)(C(F)(F)F)C(F)(F)F)c(F)cc1CNC(=O)[C@@H]1CCCN1 [Example 109, Hydrochloride] > 70%

Field: Emax (5-HT2C receptor (Homo sapiens)). Entry: COc1nc(O[C@H]2CC[C@@H](C(F)(F)F)CC2)c(F)cc1CNC(=O)[C@@H]1CCCN1 > 70%

====

Would you kindly list pEC50 for each of these molecules?
Target: UniProt:P28335
Experiment: Human 5-HT2C functional assay (beta-arrestin2 recruitment, U2OS_HTR2C_β-Arrestin cells)
Settings: beta-arrestin2 recruitment, U2OS_HTR2C_β-Arrestin cells, 1.5 h incubation; read-out: EC50 5-HT2C (potency in functional assay)
pEC50: −log10 of the molar value. Structures can show the parent of a compound that is named as a salt.

Query (molecule): COc1nc(OCC2CC(F)(F)C2)c(F)cc1CNC(=O)[C@@H]1CCCN1C [Example 92, Hydrochloride] ; field requested: pEC50 > 7.70

Query (molecule): COc1nc(Cc2ccccc2)c(F)cc1CNC(=O)[C@@H]1CCCN1 ; field requested: pEC50 > 7.70

Query (molecule): COc1nc(O[C@H]2CC[C@H](F)CC2)c(F)cc1CNC(=O)[C@@H]1CCCN1C ; field requested: pEC50 > 7.70

Query (molecule): COc1nc(OC2CCC(C(F)(F)F)CC2)c(F)cc1CNC(=O)[C@@H]1C[C@@H](C)CN1 (some centres unmarked) [Example 60, Hydrochloride] ; field requested: pEC50 6.70 to 7.70

Query (molecule): COc1nc(OCC2CC(F)(F)C2(F)F)c(F)cc1CNC(=O)[C@@H]1CCCN1 (some centres unmarked) ; field requested: pEC50 > 7.70

Query (molecule): COc1nc(OC2CCC(C(F)(F)F)CC2)c(F)cc1CNC(=O)[C@@H]1CCN1 (some centres unmarked) ; field requested: pEC50 > 7.70

Query (molecule): COc1nc(N2CC(F)(F)C(F)(F)C(F)(F)C2)c(F)cc1CNC(=O)[C@@H]1CCCN1 [Example 182, Hydrochloride] ; field requested: pEC50 > 7.70

Query (molecule): COc1nc(NC2CCC2C(F)(F)F)c(F)cc1CNC(=O)[C@@H]1CCCN1 (some centres unmarked) ; field requested: pEC50 6.70 to 7.70

====

Molecular target: 5-HT2C receptor (Homo sapiens)
Construct: host or cells: U2OS
Assay: Human 5-HT2C functional assay (beta-arrestin2 recruitment, U2OS_HTR2C_β-Arrestin cells)
Assay type: cell-based
Details: beta-arrestin2 recruitment, U2OS_HTR2C_β-Arrestin cells, 1.5 h incubation; read-out: EC50 5-HT2C (potency in functional assay)
measured-parameter: EC50

Query (compound): COc1nc(OC2CCC(F)(F)CC2)c(F)cc1CNC(=O)[C@@H]1CCCN1 ; field requested: EC50 < 20 nM

Query (compound): COc1nc(N[C@H]2CC[C@@H](C(F)(F)F)CC2)c(F)cc1CNC(=O)[C@@H]1CCCN1.Cl [Example 142, Hydrochloride] ; field requested: EC50 < 20 nM

Query (compound): COc1nc(N2CC(Cc3ccccc3)C2)c(F)cc1CNC(=O)[C@@H]1CCCN1 ; field requested: EC50 20 to 200 nM

Query (compound): COc1nc(OC2CCC(C(C)(F)F)CC2)c(F)cc1CNC(=O)[C@@H]1CCCN1 (stereo partly shown) [Example 72, 2,2,2-trifluoroacetate] ; field requested: EC50 < 20 nM
